# test-name: soluble on expression in E. coli; label from the status in PepcDB or PDB records
value-kind: soluble on expression in E. coli

- sequence-input: "MSLDSNSQSRSSSASSIGSESETGNAVVVFGYREAITKQILAYFAQFGEILEDLESELGDTETMRTPGYFFQQAPNRRRISREHGRTWTKLTYANHSSYLRALREHGTIYCGAAIGCVPYKHELISELSRDTYNSMNDVKQTNSISTNQLTQHNQSEVPKSNQTFETKPTNETERNQIKTPSAFGSDNKGNGSISSGRTKRRLSIKDGSSLFLSGTDNIFSTLDGQPTKKRMINRDRSLIGKISGWLFGWNDLEGHHHHHH"
  observed: "soluble"
- sequence-input: "MSLTDPLRFVLVPKVVHPWFDKVNDGAKAAAEMLTTTTGRKVTVEYRAPQKADVVEQNDIIARSIATRPDGIFVDLLDEKGNRAVLEEAQEQGIPVTVFDSVAPEGMNLTSIGNDFCEQATIASTRLVELMGGKGEVAIMMGVPTAPNHAIRAKCHEQTFAKYPDIKLVATGIDNDSIETAQKQAAAIMQAHPNLKGWVASDAAGPIGIGQAIKEAGKVGKVFEVGLDDLPDLLALIKEGVVDSSSSTKPEMQGYWAVIATWQKAMGMPTPKYIDTGIAVITKESLAKEGHHHHHH"
  observed: "soluble"

* * *

# test-name: soluble on expression in E. coli; label from the status in PepcDB or PDB records

- sequence-input: "MTKIAFVFPGQGAQKVGMGQDVAAEYPEAKKIYDDADERLGFSITEIITEGPIELLTKSENAQPALVSTSVAILRALETYGVKADYVAGHSLGEYSALVAGGFLEASDAIYLVRKRGELMEAAVPNGAGAMAAVLGVDRETLKTITEEVTKEGDAVQLANLNCPGQIVISGTTAGVEKAGEKAKESGAKRVLPLAVSGPFHSSLMEPAALAFRDVLAEVKISDGQIPVVNNVDAKETTDKSEISDKLIKQIYSPVLWEDIVEELIKNGVDTFVEIGSGKVLAGLIKKINRDVTVLSAGDAESVKSVAATLKGE"
  soluble on expression in E. coli: "not soluble"
- sequence-input: "MSDFGNPLKKFKLVFLGEQSVGKTSLITRFMYDSFDNTYQATIGIDFLSKTMYLEDRTVRLQLWDTAGQERFRSLIPSYIRDSTVAVVVYDITNSNSFHQTSKWIDDVRTERGSDVIIMLVGNKTDLSDKRQVTTDEGERKAKELNVMFIETSAKAGYNVKQLFRRIAGALPGIIKDDPVEPPNVVTMDPIRQRQIVTDEGSCWC"
  soluble on expression in E. coli: "not soluble"

* * *

# test-name: soluble on expression in E. coli; label from the status in PepcDB or PDB records
value-kind: soluble on expression in E. coli

- sequence-input: "MSLNGPLKIGYYKIGAAYRDGKGYDVDMVRELARRLGCPIANETELPRLRALKMLETGQIDVSASTLATPDRLQYAWIYQYNHAKNMVLLNPAIQARTLATLLEDPALRWGAIRGYHHGPSQDKLLEELNARHKVVIANDEDDLYKMLGNGVVTAVFAQPFSYGRWLRELPNPNQIVVLDLYPETDMVASGLALSKARFSREAAEKWHQELLKMYQDGSLYDIMRRYLNEGHHHHHH"
  value-kind: "soluble on expression in E. coli"
  observed: "not soluble"
- sequence-input: "MAHHHHHHMYEVYYLNEHDEFEKKKKKNEEIQSSLILKNHAISSEKKSKLVKHNIYEGGYTIWECTWDMLKFFHKEGFDFNNKQVLELGCGHGLVGIKVLLDNGNVVFQELNKEVINDVLLPNIKKNLKMKLKKKKLKENKHYMKINNDKITCYVINKPWHKLNSKLQKKKLNCFDFILGNEILYRKENYYHILKILKKNLKKGGKAYFGSKSYYFGFEDGTGSNSFVTYVNNNEHFNFVARIIQTTTGKSVYSKDIIEVTFSPNND"
  value-kind: "soluble on expression in E. coli"
  observed: "not soluble"
- sequence-input: "MGSDKIHHHHHHMNNIGLILEGGGMRGVYTAGVLDFFMDKNLYFPYVSGVSMGACNAASYVSKQRGRTKSVTVDLADDSRYISLKNFIKYKSIFGMDFIFDEVPNKLFPFDFNTFSNSTQKLVIGTTDCLTGKEVYFSHSSSNDILDIIRASSSLPFISEPVKINNYTLMDGGIADPIPIKRSIEDGNAKNVLILTREADYIKNPFKHNWILSKKYSQFKGLCKAILNRHKLYNETLKYISHLENTGKVFIIRPTFSPKVKRIEKNKSRLNALYLEGYKDAEKNYDKLLQFLNSN"
  value-kind: "soluble on expression in E. coli"
  observed: "not soluble"
